Readings of melting point for the listed molecules

Below, 4 molecules whose answers are already recorded.
> print(dat)
                                   molecule       endpoint      datavalue
1              COc1ccc2cc(C=NNC(N)=O)ccc2c1  melting point  218 to 219 °C
2  CCOC(=O)CCN(Cc1ccc(OC)c(OC)c1)C(=O)CN(C)C(=O)Cc1ccc(NC(=O)Nc2ccccc2C)c(OC)c1  melting point   97 to 105 °C
3  CC1CC(N)=NN1c1ccc(Cl)cn1 (stereo not given)  melting point  168 to 170 °C
4  Cc1nnc(-c2ccccc2F)n2nc(OCc3ncnn3C)c(-c3ccsc3)c12  melting point  124 to 129 °C

Enquiry: Look up and report measured melting point for this entry: `CCCCCCCCCCCCCCCCn1c2cc(Cl)ccc2c2ccc(Cl)cc21`
Return: 82 to 83 °C

Enquiry: # return recorded melting point for input `O=C1CNC(=O)N1Cc1ccc2ccn(C3CCN(CCc4ccc(F)cc4)CC3)c2c1`
Return: 156 to 157 °C

Enquiry: Quick one: give measured melting point for `Cn1c(C(F)(F)F)cc(=O)n(-c2ccc3snc(CCl)c3c2)c1=O`
Return: 201 to 203 °C

Enquiry: Give reported melting point value for `Cc1ccc(C)c(-c2nsc3ccccc23)c1`
Return: 87 °C

Enquiry: For the molecule `CCCCCCCCCCCC#Cc1cnccc1C=CC(=O)O` , report melting point.
Return: 177 to 178 °C

Enquiry: Write down melting point measured for item `CCOC(=O)c1ccc(NCCCCCCCc2ccccc2)cc1`
Return: 65 to 67 °C

---

endpoint: melting point

Consider the worked cases shown below.
> print(dat)
                                   compound       endpoint      datavalue
1  O=C1c2ccccc2S(=O)(=O)N1CCCCN1CCC2(CC1)Cc1ccccc1O2  melting point   98 to 100 °C
2               C#CCNc1nc2cc3ccccc3cc2nc1Cl  melting point  169 to 172 °C
3  CCOC(=O)c1cn(-c2nc(NC(C)(C)C)c(F)cc2F)c2c(C)c(F)c(F)cc2c1=O  melting point  207 to 211 °C

Enquiry: Quote melting point reported for `COC(=O)c1cccc(N)c1NCc1ccc(-c2ccccc2C#N)cc1` please.
Return: 110 to 111 °C

Enquiry: Supply recorded melting point for `O=C(O)c1ccccc1CN1CCc2sccc2C1` here.
Return: 200 to 205 °C

Enquiry: Give the reported melting point for this compound. `C=CCN1CC(=O)N(c2cc(C(=O)NCCCOc3ccc(C(C)(C)CC)cc3C(C)(C)CC)c(O)c3ccccc23)C1=S`
Return: 204 to 205 °C

Enquiry: Quick one: give measured melting point for `Nc1nc2[nH]c(CCCCCc3ccc(C(=O)N[C@@H](CCC(=O)O)C(=O)O)s3)cc2c(=O)[nH]1`
Return: 181 to 182 °C

Enquiry: Give me measured melting point, please, for this compound: Cc1c(C)c2c(c(C)c1N)C(c1ccccc1)C(C)(C)O2 (stereo not given)
Return: 131 to 132 °C

Enquiry: Give melting point for `CNC(=O)C(=O)CCCCCCc1csc(-c2ccc(Cl)cc2)n1`
Return: 77 to 81 °C

Enquiry: Please look at this compound and report its melting point: `Cc1c(F)cccc1Cc1c(-c2ccccc2)c2ccccn2c1C(=O)N1CCN[C@@H](CC(=O)NCC2CCOCC2)C1`
Return: 147 °C

Enquiry: Give melting point for `FC(F)(F)c1ccc(OCCc2c[nH]cn2)cc1`
Return: 105 to 109 °C

Enquiry: Tell us which melting point value is on record for `Cc1cccc(OC(=O)c2ccccc2)c1`
Return: 51 to 54 °C
